Data provenance: paper PMC10935766

Target: T1, E6AP AZUL 24-87 (Homo sapiens, UniProt Q05086)
T1 chain: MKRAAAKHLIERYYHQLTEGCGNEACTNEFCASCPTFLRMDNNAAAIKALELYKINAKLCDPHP
Experiment: ITC
Catalogue of Kd readings, one per entry.

The following binders have reported results that may help.
binder: Rpn10 RAZUL S358C 305-377 (protein) SADIDASSAMDTSEPAKEEDDYDVMQDPEFLQSVLENLPGVDPNNEAIRNAMGCLASQATKDGKKDKKEEDKK
Kd: < 30 nM
//
binder: Rpn10 RAZUL S361C 305-377 (protein) SADIDASSAMDTSEPAKEEDDYDVMQDPEFLQSVLENLPGVDPNNEAIRNAMGSLACQATKDGKKDKKEEDKK
Kd: 6.9 nM

Ask: Value lookup for Kd; key = Rpn10 RAZUL S337C-acrylodan 305-377 (protein, S337C labeled with acrylodan) SADIDASSAMDTSEPAKEEDDYDVMQDPEFLQSVLENLPGVDPNNEAIRNAMGSLASQATKDGKKDKKEEDKK
Result: < 35 nM

Ask: Value lookup for Kd; key = Rpn10 RAZUL S337C 305-377 (protein) SADIDASSAMDTSEPAKEEDDYDVMQDPEFLQCVLENLPGVDPNNEAIRNAMGSLASQATKDGKKDKKEEDKK
Result: < 30 nM
